Target: progesterone receptor (Homo sapiens (Human))
Test: Progesterone receptor binding test (displacement of 3H-progesterone)
Conditions: ratio of competition factors, progesterone receptor to mineralocorticoid receptor
Sequence (P06401 whole entry, species assumed): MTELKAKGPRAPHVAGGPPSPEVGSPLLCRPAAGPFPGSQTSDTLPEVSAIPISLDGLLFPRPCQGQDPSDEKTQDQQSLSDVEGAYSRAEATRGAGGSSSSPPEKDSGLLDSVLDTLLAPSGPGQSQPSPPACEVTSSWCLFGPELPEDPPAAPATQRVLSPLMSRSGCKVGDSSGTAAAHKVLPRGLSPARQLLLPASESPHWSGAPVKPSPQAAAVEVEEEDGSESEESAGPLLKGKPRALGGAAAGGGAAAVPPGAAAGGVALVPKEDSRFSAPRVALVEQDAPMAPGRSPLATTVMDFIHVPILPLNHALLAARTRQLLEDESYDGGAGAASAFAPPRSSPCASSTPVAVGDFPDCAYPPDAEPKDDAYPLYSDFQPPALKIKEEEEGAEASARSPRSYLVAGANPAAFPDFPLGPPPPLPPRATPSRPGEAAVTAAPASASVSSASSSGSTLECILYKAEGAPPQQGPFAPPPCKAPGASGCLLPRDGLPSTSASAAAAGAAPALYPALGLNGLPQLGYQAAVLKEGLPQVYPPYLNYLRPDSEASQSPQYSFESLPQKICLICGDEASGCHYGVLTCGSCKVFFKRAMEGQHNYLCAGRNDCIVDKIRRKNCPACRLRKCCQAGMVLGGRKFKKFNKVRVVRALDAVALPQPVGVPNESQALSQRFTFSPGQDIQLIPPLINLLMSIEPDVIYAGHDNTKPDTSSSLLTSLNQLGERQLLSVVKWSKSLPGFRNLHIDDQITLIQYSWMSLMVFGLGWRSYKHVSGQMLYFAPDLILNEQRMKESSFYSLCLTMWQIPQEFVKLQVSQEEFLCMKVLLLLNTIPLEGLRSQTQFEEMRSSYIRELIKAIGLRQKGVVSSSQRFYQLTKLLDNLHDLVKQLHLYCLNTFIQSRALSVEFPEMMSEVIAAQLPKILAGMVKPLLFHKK
reported_property: CF PR/CF MR
Give the figure only, with no unit attached.

Item: CCC1CC2=CC(=O)CCC2C2CC[C@@]3(C)C(C4CC4[C@@]34CCC(=O)O4)C12 (some centres unmarked) | CF PR/CF MR: 1.45

Item: C[C@]12CCC3C4CCC(=O)C=C4CC(C4CC4)C3C1C1CC1[C@@]21CCC(=O)O1 (some centres unmarked) | CF PR/CF MR: 1.66

Item: C[C@]12CCC3C4CCC(=O)C=C4C4(CC4)CC3C1C1CC1[C@@]21CCC(=O)O1 (some centres unmarked) | CF PR/CF MR: 0.79

Item: C=CC1CC2=CC(=O)CCC2C2CC[C@@]3(C)C(C4CC4[C@@]34CCC(=O)O4)C12 (some centres unmarked) | CF PR/CF MR: 0.83

Item: C[C@]12CCC3C4CCC(=O)C=C4[C@H](CO)CC3C1C1CC1[C@@]21CCC(=O)O1 (some centres unmarked) | CF PR/CF MR: 23.76

----------
Assign Emax to each entry below.
Molecular target: progesterone receptor (Homo sapiens (Human), UniProt P06401)
Experiment: Progestational action by transactivation test (CHO K1 reporter cells, luciferase)
Assay type: cell-based
Settings: CHO-K1, 16 h, read-out: In vitro Transactivation Progesterone receptor Agonisten Efficacy
Sequence (P06401 679-913, species assumed): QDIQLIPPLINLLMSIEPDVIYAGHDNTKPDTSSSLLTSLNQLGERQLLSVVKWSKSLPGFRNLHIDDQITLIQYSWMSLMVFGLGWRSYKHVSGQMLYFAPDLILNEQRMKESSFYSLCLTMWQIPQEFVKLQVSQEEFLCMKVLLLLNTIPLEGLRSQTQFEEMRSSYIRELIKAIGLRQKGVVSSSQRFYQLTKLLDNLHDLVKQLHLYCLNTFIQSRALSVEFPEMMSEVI
Respond with the bare value in %.

Known value: progesterone receptor (Homo sapiens (Human), UniProt P06401) Emax of the molecule C[C@]12CCC3C4CCC(=O)C=C4CCC3C1C1CC1[C@@]21CCC(=O)O1 (stereo partly shown) equals 55.9

Known value: progesterone receptor (Homo sapiens (Human), UniProt P06401) Emax of the molecule CCC1CC2=CC(=O)CCC2C2CC[C@@]3(C)C(C4CC4[C@@]34CCC(=O)O4)C12 (stereo partly shown) equals 56.7

Known value: progesterone receptor (Homo sapiens (Human), UniProt P06401) Emax of the molecule C[C@]12CCC3C4CCC(=O)C=C4C4(CC4)CC3C1C1CC1[C@@]21CCC(=O)O1 (stereo partly shown) equals 69.7

Known value: progesterone receptor (Homo sapiens (Human), UniProt P06401) Emax of the molecule CC1CC2=CC(=O)CCC2C2CC[C@@]3(C)C(C4CC4[C@@]34CCC(=O)O4)C12 (stereo partly shown) equals 87

Known value: progesterone receptor (Homo sapiens (Human), UniProt P06401) Emax of the molecule C[C@]12CCC3C4CCC(=O)C=C4CC(C4CC4)C3C1C1CC1[C@@]21CCC(=O)O1 (stereo partly shown) equals 48.6

Known value: progesterone receptor (Homo sapiens (Human), UniProt P06401) Emax of the molecule C=CC1CC2=CC(=O)CCC2C2CC[C@@]3(C)C(C4CC4[C@@]34CCC(=O)O4)C12 (stereo partly shown) equals 66.1

Known value: progesterone receptor (Homo sapiens (Human), UniProt P06401) Emax of the molecule C[C@]12CCC3C4CCC(=O)C=C4[C@@H]4C[C@@H]4C3C1C1CC1[C@@]21CCC(=O)O1 (stereo in doubt) equals 77.4

----------
Assign pEC50 to each entry below.
Biological target: UniProt P06401
Assay: Progestational action by transactivation test (CHO K1 reporter cells, luciferase)
Format: cell-based
Note on units: pEC50 is unitless, being -log10 of a concentration expressed in mol/L.

Item: C[C@]12CCC3C4CCC(=O)C=C4CC(C4CC4)C3C1C1CC1[C@@]21CCC(=O)O1 (stereo partly shown) | pEC50: 9.00

Item: C=CC1CC2=CC(=O)CCC2C2CC[C@@]3(C)C(C4CC4[C@@]34CCC(=O)O4)C12 (stereo partly shown) | pEC50: 8.47

Item: CCC1CC2=CC(=O)CCC2C2CC[C@@]3(C)C(C4CC4[C@@]34CCC(=O)O4)C12 (stereo partly shown) | pEC50: 9.15

Item: C[C@]12CCC3C4CCC(=O)C=C4C4(CC4)CC3C1C1CC1[C@@]21CCC(=O)O1 (stereo partly shown) | pEC50: 10.00

----------
Assign Receptor binding Progesterone receptor Competition factor to each entry below.
Target: progesterone receptor (Homo sapiens (Human), UniProt P06401)
Experiment: Progesterone receptor binding test (displacement of 3H-progesterone)
Conditions: CF relative to progesterone (=1); CF <1 means higher affinity
Give the figure only, with no unit attached.

Item: C[C@]12CCC3C4CCC(=O)C=C4C4(CC4)CC3C1C1CC1[C@@]21CCC(=O)O1 (stereo partly drawn) | Receptor binding Progesterone receptor Competition factor: 0.71

Item: C[C@]12CCC3C4CCC(=O)C=C4CC(C4CC4)C3C1C1CC1[C@@]21CCC(=O)O1 (stereo partly drawn) | Receptor binding Progesterone receptor Competition factor: 2.65

Item: C=CC1CC2=CC(=O)CCC2C2CC[C@@]3(C)C(C4CC4[C@@]34CCC(=O)O4)C12 (stereo partly drawn) | Receptor binding Progesterone receptor Competition factor: 1.16

Item: C[C@]12CCC(=O)C=C1[C@@H]1C[C@@H]1[C@H]1[C@@H]3[C@@H]4C[C@@H]4[C@@]4(CCC(=O)O4)[C@@]3(C)CC[C@@H]12 [A, reference compound] | Receptor binding Progesterone receptor Competition factor: 2.7

Item: C[C@]12CCC3C4CCC(=O)C=C4[C@H](CO)CC3C1C1CC1[C@@]21CCC(=O)O1 (stereo partly drawn) | Receptor binding Progesterone receptor Competition factor: 49.90

Item: CCC1CC2=CC(=O)CCC2C2CC[C@@]3(C)C(C4CC4[C@@]34CCC(=O)O4)C12 (stereo partly drawn) | Receptor binding Progesterone receptor Competition factor: 1.74

----------
Target: UniProtKB P10275
Assay: Androgen receptor binding test (displacement of 3H-testosterone)
Details: cytosol from AR-expressing insect cells (Hi5), reference 3H-testosterone
Note to self: values exactly at 3 are true (1). So Receptor binding Androgen receptor Competition factor at or above 3 is true (1), below is false (0).

query: Does C[C@]12CCC3C4CCC(=O)C=C4CC(C4CC4)C3C1C1CC1[C@@]21CCC(=O)O1 (stereo partly shown) have a reported Receptor binding Androgen receptor Competition factor of at least 3?
result: true (1)

query: Does CC1CC2=CC(=O)CCC2C2CC[C@@]3(C)C(C4CC4[C@@]34CCC(=O)O4)C12 (stereo partly shown) have a reported Receptor binding Androgen receptor Competition factor of at least 3?
result: false (0)

query: Does C[C@]12CCC3C4CCC(=O)C=C4CCC3C1C1CC1[C@@]21CCC(=O)O1 (stereo partly shown) have a reported Receptor binding Androgen receptor Competition factor of at least 3?
result: true (1)

query: Does C[C@]12CCC3C4CCC(=O)C=C4C4(CC4)CC3C1C1CC1[C@@]21CCC(=O)O1 (stereo partly shown) have a reported Receptor binding Androgen receptor Competition factor of at least 3?
result: false (0)

query: Does C[C@]12CCC3C4CCC(=O)C=C4[C@H](CO)CC3C1C1CC1[C@@]21CCC(=O)O1 (stereo partly shown) have a reported Receptor binding Androgen receptor Competition factor of at least 3?
result: true (1)

query: Does CCC1CC2=CC(=O)CCC2C2CC[C@@]3(C)C(C4CC4[C@@]34CCC(=O)O4)C12 (stereo partly shown) have a reported Receptor binding Androgen receptor Competition factor of at least 3?
result: true (1)

----------
Assign pIC50 to each entry below.
Note on units: pIC50 is unitless, being -log10 of a concentration expressed in mol/L.

Known value: progesterone receptor (Homo sapiens (Human)) pIC50 of the compound C[C@]12CCC3C4CCC(=O)C=C4C4(CC4)CC3C1C1CC1[C@@]21CCC(=O)O1 (some centres unmarked) equals 8.05

Known value: progesterone receptor (Homo sapiens (Human)) pIC50 of the compound CCC1CC2=CC(=O)CCC2C2CC[C@@]3(C)C(C4CC4[C@@]34CCC(=O)O4)C12 (some centres unmarked) equals 7.48

Known value: progesterone receptor (Homo sapiens (Human)) pIC50 of the compound C=CC1CC2=CC(=O)CCC2C2CC[C@@]3(C)C(C4CC4[C@@]34CCC(=O)O4)C12 (some centres unmarked) equals 7.82

Known value: progesterone receptor (Homo sapiens (Human)) pIC50 of the compound C[C@]12CCC3C4CCC(=O)C=C4CC(C4CC4)C3C1C1CC1[C@@]21CCC(=O)O1 (some centres unmarked) equals 7.29

Known value: progesterone receptor (Homo sapiens (Human)) pIC50 of the compound C[C@]12CCC3C4CCC(=O)C=C4[C@H](CO)CC3C1C1CC1[C@@]21CCC(=O)O1 (some centres unmarked) equals 5.96

----------
Here's what we have: IC50 numbers for androgen receptor (Homo sapiens (Human)).
Respond with the bare value in nM.

Item: CCC1CC2=CC(=O)CCC2C2CC[C@@]3(C)C(C4CC4[C@@]34CCC(=O)O4)C12 (stereo partly drawn) | IC50: 74

Item: C[C@]12CCC3C4CCC(=O)C=C4CCC3C1C1CC1[C@@]21CCC(=O)O1 (stereo partly drawn) | IC50: 6

Item: CC1CC2=CC(=O)CCC2C2CC[C@@]3(C)C(C4CC4[C@@]34CCC(=O)O4)C12 (stereo partly drawn) | IC50: 61
